target: IL-17A/A (Homo sapiens, UniProt Q16552); test: IL-17A/A HEK-Blue Cell Assay; conditions: IL-17A/A inhibition, HEK-Blue IL-17A reporter cell line, SEAP readout at A630, incubated for 20 hours
Sequence (Q16552 24-155): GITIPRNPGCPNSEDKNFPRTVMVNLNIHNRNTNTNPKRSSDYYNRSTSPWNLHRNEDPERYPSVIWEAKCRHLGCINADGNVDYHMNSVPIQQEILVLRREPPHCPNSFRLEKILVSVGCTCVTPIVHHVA
pIC50: −log10 of the molar value.
assay metric: pIC50

compound | observed measurement
CCn1nccc1C(=O)N[C@H](c1nc2ccc(C[C@H]3CCCNC3=O)cc2[nH]1)C(C1CC1)C1CC1 [Compound 35] | 6.00 to 7.00
CCn1nccc1C(=O)N[C@H](c1nc2cc(CC3CC(C(F)(F)F)NC3=O)cc(F)c2[nH]1)C(C1CC1)C1CC1 (stereo partly shown) [Compound 42] | < 6.00
CCn1nccc1C(=O)N[C@H](c1nc2c(F)c(CC3CCC(C(F)(F)F)NC3=O)ccc2[nH]1)C(C1CC1)C1CC1 (single isomer, unassigned) [Compound 47] | 6.00 to 7.00
CCn1nccc1C(=O)N[C@H](c1nc2c(F)c(CC3CC(C(F)(F)F)NC3=O)ccc2[nH]1)C(C1CC1)C1CC1 (stereo partly shown) [Compound 39] | < 6.00
CCn1nccc1C(=O)N[C@H](c1nc2ccc(C(C)C3CCCNC3=O)cc2[nH]1)C(C1CC1)C1CC1 (stereo partly shown) [Compound 84] | 6.00 to 7.00
CCn1nccc1C(=O)N[C@H](c1nc2ccc(C[C@H]3CCNC3=O)cc2[nH]1)C(C1CCC1)C1CCC1 [Compound 64] | 6.00 to 7.00
CCn1nccc1C(=O)N[C@H](c1nc2cc(C[C@@H]3CCNC3=O)cc(F)c2[nH]1)C1CCC(F)(F)CC1 [Compound 14] | < 6.00
CCn1nccc1C(=O)N[C@H](c1nc2cc(C[C@@H]3C[C@H](C(F)(F)F)NC3=O)ccc2[nH]1)C(C1CC1)C1CC1 (single isomer, unassigned) [Compound 5] | < 6.00
CCn1nccc1C(=O)N[C@H](c1nc2cc(C[C@H]3CCNC3=O)ccc2[nH]1)C1CCC(F)(F)CC1 [Compound 7] | 6.00 to 7.00
CCn1nccc1C(=O)N[C@H](c1nc2cc(CC3CCC(C(F)(F)F)NC3=O)ccc2[nH]1)C(C1CC1)C1CC1 (stereo partly shown) [Compound 44] | < 6.00
CCn1nccc1C(=O)N[C@H](c1nc2c(F)c(CC3CCC(C(F)(F)F)NC3=O)ccc2[nH]1)C(C1CC1)C1CC1 (single isomer, unassigned) [Compound 48] | < 6.00
CCn1nccc1C(=O)N[C@@H](c1nc2nc(C[C@H]3CCNC3=O)ccc2[nH]1)C1CCC(F)(F)CC1 [Compound 28] | < 6.00
CCn1nccc1C(=O)N[C@H](c1nc2cc(CC3CCC(C(F)(F)F)NC3=O)ccc2[nH]1)C(C1CC1)C1CC1 (stereo partly shown) [Compound 45] | 6.00 to 7.00
